System: K98450-129-R-PDC multicell spheroids, viability
test-protocol: Anticancer human tumor K98450-129-R-PDC patient-derived colon adenocarcinoma cell line growth inhibition [PI3K]
measurement-setup: second compound 0.1 µM; first compound 0.1 µM; active compounds read low
Text: Combinatorial screen of targeted agents with the PI3K inhibitors inavolisib, alpelisib, duvelisib, and copanlisib in multi-cell type tumor spheroids A high-throughput screen of multi-cell type tumor spheroids was designed to identify active combinations of targeted small molecules and PI3K pathway inhibitors. […] Compounds. […] If the clinical Cmax for an agent had not been determined, the highest concentration tested was 10 microM. […]
measurement-type: viability, T/C (%)
Could you give me the number in %? Just the number is fine.

Examples from the recorded data:
>  <compound>
CC(C)NCC(C(=O)N1CCN(c2ncnc3c2C(C)CC3O)CC1)c1ccc(Cl)cc1 (stereo unspecified) + CC(Nc1ccc2c(c1)OCCn1cc(N3C(=O)OCC3C(F)F)nc1-2)C(N)=O

>  <viability, T/C / %>
91.7

$$$$
>  <compound>
Cn1ncc(Cl)c1-c1cc(C(=O)NC(CN)Cc2cccc(F)c2)sc1Cl (stereo unspecified) + COc1c(OCCCN2CCOCC2)ccc2c3n(c(=NC(=O)c4cnc(N)nc4)nc12)CCN3

>  <viability, T/C / %>
70.4

$$$$
>  <compound>
CC(C)NCC(C(=O)N1CCN(c2ncnc3c2C(C)CC3O)CC1)c1ccc(Cl)cc1 (stereo unspecified) + Cc1nc(NC(=O)N2CCCC2C(N)=O)sc1-c1ccnc(C(C)(C)C(F)(F)F)c1

>  <viability, T/C / %>
98.8

$$$$
>  <compound>
CC1(C)CCC(Nc2ncc(C(F)(F)F)c(-c3c[nH]c4c(P(C)(C)=O)c(C#N)ccc34)n2)CN1 (stereo unspecified) + CC(Nc1ncnc2nc[nH]c12)c1cc2cccc(Cl)c2c(=O)n1-c1ccccc1

>  <viability, T/C / %>
108

$$$$
>  <compound>
CC(=O)c1c(C)c2cnc(Nc3ccc(N4CCNCC4)cn3)nc2n(C2CCCC2)c1=O + CC(Nc1ncnc2nc[nH]c12)c1cc2cccc(Cl)c2c(=O)n1-c1ccccc1

>  <viability, T/C / %>
99.3

$$$$

// lookup viability, T/C for CC1(C)CCC(CN2CCN(c3ccc(C(=O)NS(=O)(=O)c4ccc(NCC5CCOCC5)c([N+](=O)[O-])c4)c(Oc4cnc5[nH]ccc5c4)c3)CC2)=C(c2ccc(Cl)cc2)C1 + Cc1nc(NC(=O)N2CCCC2C(N)=O)sc1-c1ccnc(C(C)(C)C(F)(F)F)c1 96.9

Moving on to Cn1nccc1Nc1nccc(-c2ccn(C(CO)c3ccc(Cl)c(F)c3)c(=O)c2)n1 (stereo unspecified) + COc1c(OCCCN2CCOCC2)ccc2c3n(c(=NC(=O)c4cnc(N)nc4)nc12)CCN3 74.8

Moving on to CC(=O)c1c(C)c2cnc(Nc3ccc(N4CCNCC4)cn3)nc2n(C2CCCC2)c1=O + CC(Nc1ccc2c(c1)OCCn1cc(N3C(=O)OCC3C(F)F)nc1-2)C(N)=O 103

Moving on to CCN1CCN(Cc2ccc(Nc3ncc(F)c(-c4cc(F)c5nc(C)n(C(C)C)c5c4)n3)nc2)CC1 + CC(Nc1ncnc2nc[nH]c12)c1cc2cccc(Cl)c2c(=O)n1-c1ccccc1 87.7

Moving on to CC(=O)c1c(C)c2cnc(Nc3ccc(N4CCNCC4)cn3)nc2n(C2CCCC2)c1=O + Cc1nc(NC(=O)N2CCCC2C(N)=O)sc1-c1ccnc(C(C)(C)C(F)(F)F)c1 98

Moving on to CC(C)n1nc(-c2ccc3oc(N)nc3c2)c2c(N)ncnc21 + COc1c(OCCCN2CCOCC2)ccc2c3n(c(=NC(=O)c4cnc(N)nc4)nc12)CCN3 55.5

###

Test system: K98450-129-R-PDC multicell spheroids, viability
test-protocol: Anticancer human tumor K98450-129-R-PDC cell line growth inhibition [PI3K];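 further: spheroids exposed to agents for seven days before read-out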
measurement-setup: second compound 0.0316 µM; first compound 0.1 µM; active compounds read low
# viability, T/C per entry
Could you give me the number in %? Just the number is fine.

Examples from the recorded data:
>  <compound>
CC(C)NCC(C(=O)N1CCN(c2ncnc3c2C(C)CC3O)CC1)c1ccc(Cl)cc1 (stereo not given) + CC(Nc1ncnc2nc[nH]c12)c1cc2cccc(Cl)c2c(=O)n1-c1ccccc1

>  <unit-label>
%

>  <viability, T/C>
107

$$$$
>  <compound>
CC1(C)CCC(CN2CCN(c3ccc(C(=O)NS(=O)(=O)c4ccc(NCC5CCOCC5)c([N+](=O)[O-])c4)c(Oc4cnc5[nH]ccc5c4)c3)CC2)=C(c2ccc(Cl)cc2)C1 + COc1c(OCCCN2CCOCC2)ccc2c3n(c(=NC(=O)c4cnc(N)nc4)nc12)CCN3

>  <unit-label>
%

>  <viability, T/C>
96.3

$$$$
>  <compound>
Cn1ncnc1[C@H]1c2n[nH]c(=O)c3cc(F)cc(c23)N[C@@H]1c1ccc(F)cc1 + Cc1nc(NC(=O)N2CCCC2C(N)=O)sc1-c1ccnc(C(C)(C)C(F)(F)F)c1

>  <unit-label>
%

>  <viability, T/C>
96.3

$$$$

// lookup viability, T/C for Cn1ncc(Cl)c1-c1cc(C(=O)NC(CN)Cc2cccc(F)c2)sc1Cl (stereo not given) + CC(Nc1ccc2c(c1)OCCn1cc(N3C(=O)OCC3C(F)F)nc1-2)C(N)=O 109

Moving on to CNC(=O)c1ccc(N2C(=S)N(c3ccc(C#N)c(C(F)(F)F)c3)C(=O)C2(C)C)cc1F + Cc1nc(NC(=O)N2CCCC2C(N)=O)sc1-c1ccnc(C(C)(C)C(F)(F)F)c1 93

###

System: K98450-129-R-PDC multicell spheroids, viability
test-protocol: Anticancer human tumor K98450-129-R-PDC cell line growth inhibition [PI3K];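 further: spheroids exposed to agents for seven days before read-out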
measurement-setup: second compound 0.0316 µM; first compound 0.0316 µM; active compounds read low
measurement-type: viability, T/C

>  <compound>
Cn1nccc1Nc1nccc(-c2ccn(C(CO)c3ccc(Cl)c(F)c3)c(=O)c2)n1 (stereo unspecified) + Cc1nc(NC(=O)N2CCCC2C(N)=O)sc1-c1ccnc(C(C)(C)C(F)(F)F)c1

>  <target-under-test>
K98450-129-R-PDC multicell spheroids, viability

>  <viability, T/C>
107%

$$$$

Continue with the next compound.
// lookup viability, T/C for Cn1ncc(Cl)c1-c1cc(C(=O)NC(CN)Cc2cccc(F)c2)sc1Cl (stereo unspecified) + COc1c(OCCCN2CCOCC2)ccc2c3n(c(=NC(=O)c4cnc(N)nc4)nc12)CCN3 86.9%

###

# viability, T/C per entry
System: K98450-129-R-PDC multicell spheroids, viability
test-protocol: Anticancer human tumor K98450-129-R-PDC cell line growth inhibition [PI3K];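 further: spheroids exposed to agents for seven days before read-out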
measurement-setup: second compound 0.0316 µM; first compound 0.316 µM; active compounds read low
Could you give me the number in %? Just the number is fine.

>  <molecule>
CC1(C)CCC(Nc2ncc(C(F)(F)F)c(-c3c[nH]c4c(P(C)(C)=O)c(C#N)ccc34)n2)CN1 (stereo unspecified) + COc1c(OCCCN2CCOCC2)ccc2c3n(c(=NC(=O)c4cnc(N)nc4)nc12)CCN3

>  <target-under-test>
K98450-129-R-PDC multicell spheroids, viability

>  <viability, T/C / %>
68.5

$$$$
>  <molecule>
CC1(C)CCC(Nc2ncc(C(F)(F)F)c(-c3c[nH]c4c(P(C)(C)=O)c(C#N)ccc34)n2)CN1 (stereo unspecified) + CC(Nc1ccc2c(c1)OCCn1cc(N3C(=O)OCC3C(F)F)nc1-2)C(N)=O

>  <target-under-test>
K98450-129-R-PDC multicell spheroids, viability

>  <viability, T/C / %>
81.5

$$$$
>  <molecule>
C#Cc1c(F)ccc2cc(O)cc(-c3ncc4c(N5CC6CCC(C5)N6)nc(OCC56CCCN5CC(F)C6)nc4c3F)c12 (stereo unspecified) + Cc1nc(NC(=O)N2CCCC2C(N)=O)sc1-c1ccnc(C(C)(C)C(F)(F)F)c1

>  <target-under-test>
K98450-129-R-PDC multicell spheroids, viability

>  <viability, T/C / %>
99.1

$$$$

Fill in the recorded viability, T/C for this molecule, with K98450-129-R-PDC multicell spheroids, viability as test system: C#Cc1c(F)ccc2cc(O)cc(-c3ncc4c(N5CC6CCC(C5)N6)nc(OCC56CCCN5CC(F)C6)nc4c3F)c12 (stereo unspecified) + CC(Nc1ncnc2nc[nH]c12)c1cc2cccc(Cl)c2c(=O)n1-c1ccccc1 99.1

Moving on to Cn1nccc1Nc1nccc(-c2ccn(C(CO)c3ccc(Cl)c(F)c3)c(=O)c2)n1 (stereo unspecified) + CC(Nc1ncnc2nc[nH]c12)c1cc2cccc(Cl)c2c(=O)n1-c1ccccc1 103

Moving on to C[C@@H](NC(=O)c1ncnc(N)c1Cl)c1ncc(C(=O)Nc2cc(C(F)(F)F)c(Cl)cn2)s1 + CC(Nc1ncnc2nc[nH]c12)c1cc2cccc(Cl)c2c(=O)n1-c1ccccc1 117

Moving on to CC1(C)CCC(CN2CCN(c3ccc(C(=O)NS(=O)(=O)c4ccc(NCC5CCOCC5)c([N+](=O)[O-])c4)c(Oc4cnc5[nH]ccc5c4)c3)CC2)=C(c2ccc(Cl)cc2)C1 + CC(Nc1ncnc2nc[nH]c12)c1cc2cccc(Cl)c2c(=O)n1-c1ccccc1 96.2

Moving on to CC(C)NCC(C(=O)N1CCN(c2ncnc3c2C(C)CC3O)CC1)c1ccc(Cl)cc1 (stereo unspecified) + CC(Nc1ncnc2nc[nH]c12)c1cc2cccc(Cl)c2c(=O)n1-c1ccccc1 101

Moving on to Cn1ncc(Cl)c1-c1cc(C(=O)NC(CN)Cc2cccc(F)c2)sc1Cl (stereo unspecified) + CC(Nc1ccc2c(c1)OCCn1cc(N3C(=O)OCC3C(F)F)nc1-2)C(N)=O 99.4

Moving on to CC(Cn1ccc(-c2ccc(C#N)c(Cl)c2)n1)NC(=O)c1cc(C(C)O)[nH]n1 (stereo unspecified) + COc1c(OCCCN2CCOCC2)ccc2c3n(c(=NC(=O)c4cnc(N)nc4)nc12)CCN3 80.5

Moving on to C#Cc1c(F)ccc2cc(O)cc(-c3ncc4c(N5CC6CCC(C5)N6)nc(OCC56CCCN5CC(F)C6)nc4c3F)c12 (stereo unspecified) + CC(Nc1ccc2c(c1)OCCn1cc(N3C(=O)OCC3C(F)F)nc1-2)C(N)=O 103
